Can you tell me GI50 for the items I'm about to list?
# System: NCI/ADR-RES
# Assay Name: NCI tumour cell line growth inhibition, 48 h
Active and inactive are the calls of the source. Rule as the data show it: active = GI50 up to about 1.1 µM and inactive = higher.

# lookup: GI50 of "NS(=O)(=O)c1ccc(NC(=O)c2ccc3nc4ccccc4c(Nc4ccc(S(N)(=O)=O)cc4)c3c2)cc1" > 100 µM (inactive)

# lookup: GI50 of "N#Cc1c(-c2ccc([N+](=O)[O-])cc2)c(C#N)c(=O)n(NS(=O)(=O)c2ccccc2)c1-c1ccccc1" > 100 µM (inactive)

# lookup: GI50 of "Cc1c2c(Cl)c3c(c(Cl)c2c(C)c2c(Cl)c4c(c(Cl)c12)C(c1ccccc1)(c1ccccc1)C4(c1ccccc1)c1ccccc1)C(c1ccccc1)(c1ccccc1)C3(c1ccccc1)c1ccccc1" > 100 µM (inactive)

# lookup: GI50 of "Cc1cc(N(C)c2ccccc2)nc(N(C)c2ccccc2)n1" 58.3 µM (inactive)

# lookup: GI50 of "O=C1CN(c2ccccc2)Cc2nc(Cl)ccc2N1" 94 µM (inactive)

# lookup: GI50 of C/C=C1/CN2CCC34c5ccccc5N(C)C23C2CC1C4(C(=O)OC)C(O)O2 (stereo not given) > 100 µM (inactive)

# lookup: GI50 of "CC(=O)OCOC(=O)CN(CC(=O)OCOC(C)=O)Cc1cc2c(cc1OC(C)=O)Oc1cc(OC(C)=O)c(CN(CC(=O)OCOC(C)=O)CC(=O)OCOC(C)=O)cc1C21OC(=O)c2ccccc21" 11 µM (inactive)

# lookup: GI50 of NC1CCC(c2cc3ccccc3s2)(N2CCCCC2)CC1 (stereo not given) 1.19 µM (inactive)

# lookup: GI50 of CCOC(=O)C(NC(=O)c1ccccc1)(Nc1ccc(S(=O)(=O)Nc2ncccn2)cc1)C(F)(F)F (stereo not given) > 100 µM (inactive)

# lookup: GI50 of "Oc1nc2ccccc2c2oc3ccccc3c12" > 100 µM (inactive)

# lookup: GI50 of "Brc1ccc2c(-c3csc(-c4c[nH]c5ccccc45)n3)c[nH]c2c1" 16.8 µM (inactive)

# lookup: GI50 of O=C1/C(=C\c2ccc(-c3ccc(Cl)cc3Cl)o2)SC2NC(COc3ccc(Cl)cc3)=NN12 (stereo not given) 37.5 µM (inactive)

# lookup: GI50 of "O=c1oc2c/c(=C\c3ccccn3)c(=O)c3cccc1c3-2" 52.7 µM (inactive)

# lookup: GI50 of "CCc1cn2c(/C=N/N=C(N)N)c(-c3cc(C)c(Cl)cc3Cl)nc2s1" 3.95 µM (inactive)

# lookup: GI50 of O=C(O)C(Cc1ccccc1)NCc1c(O)ccc2c(-c3ccccc3)cc(=O)oc12 (stereo not given) > 100 µM (inactive)

# lookup: GI50 of "COC(=O)c1cc(C#N)[nH]c1-c1cccs1" 33.7 µM (inactive)

# lookup: GI50 of CC12CC3OC(=O)C1COC14OC5(C2C1=O)C(O)(CCC1C4CC(O)C2(O)CC=CC(=O)C12C)C(=O)OC35C (stereo not given) > 100 µM (inactive)

# lookup: GI50 of CCCC[S+]([O-])CC(CO)NC(=O)/C=C/c1c(C)[nH]c(=O)[nH]c1=O (stereo not given) 12.4 µM (inactive)

# lookup: GI50 of "CCCCSC1=N/C(=C\c2ccco2)C(Cl)=N1" > 100 µM (inactive)

# lookup: GI50 of "Cc1ccc(NCc2nnc3c(-c4ccccc4)nc4ccccc4n23)cc1" 50.9 µM (inactive)

# lookup: GI50 of "COc1ccc(/C=N/Nc2nc(=S)[nH]c3[nH]ncc23)cc1" > 100 µM (inactive)

# lookup: GI50 of "C[C@H]1CC[C@H]([C@@H](C)[C@H]2[C@@H](O)C[C@H]3[C@@H]4CC[C@H]5C[C@@H](O)CC[C@]5(C)[C@H]4CC[C@]23C)NC1" 14.7 µM (inactive)

# lookup: GI50 of "CC(C)=CCN=C(N)N" > 100 µM (inactive)

# lookup: GI50 of C/C=C1\CC(C(=O)OCC)CCCCCCCCCCC1=O (stereo not given) 34.7 µM (inactive)

# lookup: GI50 of "COC(=O)c1cc2c(cc1Cl)Sc1nnc(Nc3ccc(C)cc3)n1S2(=O)=O" 11.1 µM (inactive)

# lookup: GI50 of "COC(=O)CCC(=O)NC1=C(NCc2ccccc2)C(=O)c2ccccc2C1=O" 29.3 µM (inactive)

# lookup: GI50 of "COc1ccccc1CNC(=O)[C@H](Cc1ccc(O)cn1)NC(C)=O" > 100 µM (inactive)

# lookup: GI50 of C=C1CC[C@@H]2C13[C@@H]1[C@H](CC(=O)[C@@]23C)C1(C)C (stereo not given in full) > 100 µM (inactive)

# lookup: GI50 of "CCOc1ccc(Nc2nc(N)nc(N)c2N=O)cc1" 47.1 µM (inactive)

# lookup: GI50 of "CC1(C)COCN1COC1CCCCC1" > 100 µM (inactive)

# lookup: GI50 of "C#CCN(C(=O)C(F)(F)F)C(/C=C\C(=O)OC)(C(=O)OCC)C(=O)OCC" > 100 µM (inactive)

# lookup: GI50 of O=CC12C3CCC1C2C(=O)C3 (stereo not given) > 100 µM (inactive)

# lookup: GI50 of "CNc1cc(N)ccc1C(=O)N1CCC[C@H]1CO" > 100 µM (inactive)

# lookup: GI50 of "S=C(N/N=C(/c1ccccc1)c1ccccn1)N(Cc1ccccn1)Cc1ccccn1" 0.0838 µM (active)

# lookup: GI50 of "COc1ccc(-c2cc(-c3ccccc3)nc3c2CC(=O)Nc2ccccc2-3)cc1OC" 1.37 µM (inactive)

# lookup: GI50 of CC(c1ccccc1)N1CCN(C(C)c2ccccc2)CC1 (stereo not given) > 100 µM (inactive)

# lookup: GI50 of CC(C)/C=C1\CCC(CN(C)C)C1=O (stereo not given) 3 µM (inactive)

# lookup: GI50 of Cc1nn(C(=O)c2ccncc2)c2c1C(c1ccccc1)SC(=N)N2 (stereo not given) > 10 µM (inactive)

# lookup: GI50 of "Cc1[nH]n(C2=NCCN2)c(=O)c1C" > 100 µM (inactive)

# lookup: GI50 of CCOC(=O)C1=CN(Cc2ccccc2)C2ON=C(c3ccc(Cl)cc3)C2C1 (stereo not given) > 54.6 µM (inactive)
